# credit: paper PMC11852496

# Target system: hGOAT (human ghrelin O-acyltransferase) (Homo sapiens, UniProt Q96T53)
# Construct: made in house; host or cells: Sf9 insect cells (membrane/microsomal fraction)
# Sequence (Q96T53 whole entry): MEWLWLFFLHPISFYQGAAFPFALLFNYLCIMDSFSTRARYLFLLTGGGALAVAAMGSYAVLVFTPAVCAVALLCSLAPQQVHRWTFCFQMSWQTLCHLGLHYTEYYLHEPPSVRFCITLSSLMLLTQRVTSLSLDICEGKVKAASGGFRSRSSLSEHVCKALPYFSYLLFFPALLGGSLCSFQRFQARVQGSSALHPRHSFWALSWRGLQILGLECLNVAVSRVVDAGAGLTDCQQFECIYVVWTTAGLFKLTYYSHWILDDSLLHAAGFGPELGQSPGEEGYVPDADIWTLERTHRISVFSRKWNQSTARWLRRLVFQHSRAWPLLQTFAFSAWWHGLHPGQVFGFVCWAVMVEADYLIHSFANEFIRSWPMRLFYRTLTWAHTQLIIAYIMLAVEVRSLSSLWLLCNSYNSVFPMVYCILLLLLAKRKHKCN
# Test method notes: GOAT ghrelin acylation (octanoylation) inhibition assay, membrane fraction of Sf9 cells expressing hGOAT, HPLC readout
# Assay type: biochemical
# Setup conditions: average of three independent trials; ± one standard deviation; read-out: IC50 against hGOAT
Non-standard residues stand in square brackets, D forms with d. Residues, ends and D or L forms follow the SMILES beside them. *: point of attachment. X5 = COc1cc(/N=N/c2ccc(C)cc2[N+](=O)[O-])c(C)cc1/N=N/c1ccc(N(C)CCCC(=O)NCCn2cc(COC[C@H]3CC[C@H](CN4C(=O)CC(*)C4=O)CC3)nn2)cc1; X3 = O=C(NCCCn1cc(COC[C@H]2CC[C@H](CN3C(=O)CC(*)C3=O)CC2)nn1)c1ccc2c(c1)C(=O)OC21c2ccc(O)cc2Oc2cc(O)ccc21; X7 = C#CCOC[C@H]1CC[C@H](CN2C(=O)CC(*)C2=O)CC1; 1Nal = N[CH](Cc1cccc2ccccc12)C(=O)O; X1 = O=C1NC2CSC(CCCCC(=O)*)C2N1; PEG3 = NCCOCCOCCOCCC(=O)O; Dap = NC[CH](N)C(=O)O
Quantity kind: pIC50
Please keep in mind that pIC50 is minus log10 of the molar concentration; only the number is needed.

CC(C)CC(NC(=O)C(Cc1cccc2ccccc12)NC(=O)C(CN)NC(=O)C(CO)NC(=O)CN)C(=O)NC(CO)C(=O)N1CCCC1C(=O)NC(C(=O)NCCOCCOCCOCCC(=O)NC(CCCCNC(=O)CCCCC1SCC2NC(=O)NC21)C(N)=O)C(C)O (centres unmarked) [Ligand 13] (H-GS[Dap][1Nal]LSPT[PEG3]K(X1)-NH2; configuration not given here); 7.29
CC(C)C[C@H](NC(=O)[C@H](Cc1cccc2ccccc12)NC(=O)[C@H](CN)NC(=O)[C@H](CO)NC(=O)CN)C(=O)N[C@@H](CO)C(=O)N1CCC[C@H]1C(=O)N[C@H](C(=O)NCCOCCOCCOCCC(=O)N[C@@H](CSC1CC(=O)N(CCNC(=O)CCCCC[N+]2=C(/C=C/C=C/C=C3N(C)c4ccc(S(=O)(=O)O)cc4C3(C)C)C(C)(C)c3cc(S(=O)(=O)[O-])ccc32)C1=O)C(N)=O)[C@@H](C)O (some centres unmarked); 7.25
COc1cc(/N=N/c2ccc(C)cc2[N+](=O)[O-])c(C)cc1/N=N/c1ccc(N(C)CCCC(=O)NCCn2cc(COC[C@H]3CC[C@H](CN4C(=O)CC(SC[C@H](NC(=O)CCOCCOCCOCCNC(=O)[C@@H](NC(=O)[C@@H]5CCCN5C(=O)[C@H](CO)NC(=O)[C@H](CC(C)C)NC(=O)[C@H](Cc5cccc6ccccc56)NC(=O)[C@H](CN)NC(=O)[C@H](CO)NC(=O)CN)[C@@H](C)O)C(N)=O)C4=O)CC3)nn2)cc1 (some centres unmarked) [Ligand 12] (H-GS[Dap][1Nal]LSPT[PEG3]C(X5)-NH2); 8.23
C#CCOC[C@H]1CC[C@H](CN2C(=O)CC(SC[C@H](NC(=O)CCOCCOCCOCCNC(=O)[C@@H](NC(=O)[C@@H]3CCCN3C(=O)[C@H](CO)NC(=O)[C@H](CC(C)C)NC(=O)[C@H](Cc3cccc4ccccc34)NC(=O)[C@H](CN)NC(=O)[C@H](CO)NC(=O)CN)[C@@H](C)O)C(N)=O)C2=O)CC1 (stereo partly drawn) [Ligand 5, H-GS-Dap-Nal-1-LSPT-Mini-PEG3a-C-Linker] (H-GS[Dap][1Nal]LSPT[PEG3]C(X7)-NH2); 7.89

Now turn to the next molecule.
Request: pIC50, test system hGOAT (human ghrelin O-acyltransferase) (Homo sapiens, UniProt Q96T53), entry CC(C)C[C@H](NC(=O)[C@H](Cc1cccc2ccccc12)NC(=O)[C@H](CN)NC(=O)[C@H](CO)NC(=O)CN)C(=O)N[C@@H](CO)C(=O)N1CCC[C@H]1C(=O)N[C@H](C(=O)NCCOCCOCCOCCC(=O)N[C@@H](CSC1CC(=O)N(C[C@H]2CC[C@H](COCc3cn(CCCNC(=O)c4ccc5c(c4)C(=O)OC54c5ccc(O)cc5Oc5cc(O)ccc54)nn3)CC2)C1=O)C(N)=O)[C@@H](C)O (some centres unmarked) [Ligand 8] (H-GS[Dap][1Nal]LSPT[PEG3]C(X3)-NH2)
7.13
